- System: Mus musculus
- protocol-summary: Carcinogenicity in mouse assessed as tumor development administered sc in left groin 6 times at 10-day interval
- Assay type: toxicity, organism-based
- condition-context: in vivo
measurement-label: Activity

These solved cases illustrate the format of a correct answer.
[[record]]
compound = "O=[N+]([O-])c1cc[n+]([O-])c2cc(Cl)c(Cl)cc12"
measurement_label = "Activity"
assay_result = "Toxic"

[[record]]
compound = "COc1c[n+]([O-])c2ccccc2c1[N+](=O)[O-]"
measurement_label = "Activity"
assay_result = "Non-toxic"

[[record]]
compound = "O=[N+]([O-])c1cc[n+]([O-])c2c([N+](=O)[O-])cccc12"
measurement_label = "Activity"
assay_result = "Non-toxic"

[[record]]
compound = "Cc1ccc2c(c1)c([N+](=O)[O-])cc[n+]2[O-]"
measurement_label = "Activity"
assay_result = "Toxic"

[[record]]
compound = "O=[N+]([O-])c1ccc2c([N+](=O)[O-])cc[n+]([O-])c2c1"
measurement_label = "Activity"
assay_result = "Non-toxic"

[[record]]
compound = "Cc1ccc2c([N+](=O)[O-])cc[n+]([O-])c2c1"
measurement_label = "Activity"
assay_result = "Toxic"

[[record]]
compound = "[O-][n+]1ccc(NO)c2cc(C3CCCCC3)ccc21"
measurement_label = "Activity"
assay_result = "Non-toxic"

[[record]]
compound = "CCCCc1ccc2c(c1)c(NO)cc[n+]2[O-]"
measurement_label = "Activity"
assay_result = "Toxic"


Activity measured on Cc1cccc2c1c([N+](=O)[O-])cc[n+]2[O-] = Toxic

So, O=[N+]([O-])c1cc[n+]([O-])c2cccc(Cl)c12 ? Its Activity was Toxic

The compound listed as O=[N+]([O-])c1cc[n+]([O-])c2ccccc12 [4-NITROQUINOLINE-1-OXIDE] shows Activity equal to Toxic

Consider O=[N+]([O-])c1cc[n+]([O-])c2ccc(C3CCCCC3)cc12 . Its measured Activity is Non-toxic

The measured Activity associated with CCCCc1ccc2c(c1)c([N+](=O)[O-])cc[n+]2[O-] reads Toxic

Hey, just so you know, these numbers are from ChEMBL document CHEMBL3244023.
